The measurements presented in this section are drawn from ChEMBL document CHEMBL1144375.

Record: pKi reported on Coagulation factor VII (Homo sapiens).
Quick note: pKi values are minus log10 of concentrations in mol/L.

Use these answered entries as a reference point.
N=C(N)c1ccc2ccc(CN(CCc3ccc(F)cc3)C(=O)c3cccc4ccccc34)cc2c1 | 6.71
CN1CCN(CCCN(Cc2ccc3ccc(C(=N)N)cc3c2)C(=O)c2cccc3ccccc23)CC1 | 5.88

# ---- query compound ----
Print Coagulation factor VII (Homo sapiens) pKi for N=C(N)c1ccc2ccc(CN(CCCN3CCOCC3)C(=O)c3cccc4ccccc34)cc2c1 .
6.92

* * *

In this section we review reported Ki values for a set of compounds.
# TARGET_OF_ASSAY: Coagulation factor X (Homo sapiens)
# Sequence (P00742 41-179 limits assumed): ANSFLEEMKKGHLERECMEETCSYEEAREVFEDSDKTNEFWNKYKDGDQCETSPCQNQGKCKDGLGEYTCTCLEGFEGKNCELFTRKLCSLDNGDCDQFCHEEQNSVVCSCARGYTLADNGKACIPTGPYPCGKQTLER
# Sequence (P00742 235-488 limits assumed): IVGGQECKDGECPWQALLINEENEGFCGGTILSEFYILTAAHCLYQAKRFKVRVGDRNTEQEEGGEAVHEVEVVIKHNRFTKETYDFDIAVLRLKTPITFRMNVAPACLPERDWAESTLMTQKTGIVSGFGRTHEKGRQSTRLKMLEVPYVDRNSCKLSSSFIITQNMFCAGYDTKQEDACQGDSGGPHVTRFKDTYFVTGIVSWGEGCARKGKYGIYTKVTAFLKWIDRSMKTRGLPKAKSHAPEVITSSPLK
// units = nM; emit number, no label

CN1CCN(CCCN(Cc2ccc3ccc(C(=N)N)cc3c2)C(=O)c2cccc3ccccc23)CC1 | 136
CC(C)CCN(Cc1ccc2ccc(C(=N)N)cc2c1)C(=O)c1ccc2ccccc2c1 | 512

GET Ki | system: Coagulation factor X (Homo sapiens) | item: N=C(N)c1ccc2ccc(CN(CCCN3CCOCC3)C(=O)c3cccc4ccccc34)cc2c1
442

Give Ki only, for N=C(N)c1ccc2ccc(CN(CCc3cnc[nH]3)C(=O)c3cccc4ccccc34)cc2c1 , using Coagulation factor X (Homo sapiens) data.
264

* * *

# Lookup of reported pKi keyed by entry
Target chain: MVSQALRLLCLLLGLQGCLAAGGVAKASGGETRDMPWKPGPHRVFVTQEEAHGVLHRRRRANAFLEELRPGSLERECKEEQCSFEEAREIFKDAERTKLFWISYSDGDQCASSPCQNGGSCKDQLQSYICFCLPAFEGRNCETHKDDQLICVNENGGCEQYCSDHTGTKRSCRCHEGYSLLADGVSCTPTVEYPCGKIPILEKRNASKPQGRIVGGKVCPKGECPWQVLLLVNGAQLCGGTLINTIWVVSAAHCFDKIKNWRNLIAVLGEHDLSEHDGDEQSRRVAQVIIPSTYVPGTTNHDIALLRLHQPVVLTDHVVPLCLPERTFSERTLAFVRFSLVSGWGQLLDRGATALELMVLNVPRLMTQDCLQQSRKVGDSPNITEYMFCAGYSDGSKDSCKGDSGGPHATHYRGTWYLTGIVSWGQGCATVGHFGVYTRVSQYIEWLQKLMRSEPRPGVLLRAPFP
// pKi: -log10(molar conc.)

N=C(N)c1ccc2ccc(CN(CCc3ccccn3)C(=O)c3cccc4ccccc34)cc2c1 | 6.71
CC(C)CCN(Cc1ccc2ccc(C(=N)N)cc2c1)C(=O)c1cccc2ccccc12 | 7.03

Give recorded pKi. N=C(N)c1ccc2ccc(CN(CCCc3ccccc3)C(=O)c3cccc4ccccc34)cc2c1
6.68

Hello, please tell me recorded pKi for this one: CC(C)CC(C(=O)O)N(Cc1ccc2ccc(C(=N)N)cc2c1)C(=O)c1cccc2ccccc12 (single isomer, unassigned)
6.00

* * *

Assay system Serine protease 1 (Bos taurus); read-out recorded as Ki.
Returns: string containing the numeric result and its unit.

CC(C)CCN(Cc1ccc2ccc(C(=N)N)cc2c1)C(=O)c1ccc2ccccc2c1 | 460 nM
N=C(N)c1ccc2ccc(CN(CCCN3CCOCC3)C(=O)c3cccc4ccccc34)cc2c1 | 378 nM
N=C(N)c1ccc2ccc(CN(CCc3ccccn3)C(=O)c3cccc4ccccc34)cc2c1 | 299 nM
CN1CCCC1CCN(Cc1ccc2ccc(C(=N)N)cc2c1)C(=O)c1cccc2ccccc12 (stereo unspecified) | 433 nM
COc1ccc(CCN(Cc2ccc3ccc(C(=N)N)cc3c2)C(=O)c2cccc3ccccc23)cc1OC | 105 nM

Consider now this further compound.
Report the value of Ki obtained on Serine protease 1 (Bos taurus) for CC(C)CCN(Cc1ccc2ccc(C(=N)N)cc2c1)C(=O)c1cccc2ccccc12 .
Sequence (P00760 whole entry): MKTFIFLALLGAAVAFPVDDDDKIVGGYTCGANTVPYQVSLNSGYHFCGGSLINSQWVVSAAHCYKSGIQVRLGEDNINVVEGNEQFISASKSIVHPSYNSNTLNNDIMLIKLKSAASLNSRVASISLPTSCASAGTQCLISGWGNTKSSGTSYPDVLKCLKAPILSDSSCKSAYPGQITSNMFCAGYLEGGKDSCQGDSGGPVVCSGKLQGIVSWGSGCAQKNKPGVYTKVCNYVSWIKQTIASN
698 nM
